IC50 for assorted compounds
System: Plasmodium falciparum
Test: Antimalarial activity against Plasmodium falciparum D10 clone M3 assessed as inhibition of [3H]hypoxanthine incorporation
Assay type: functional, organism-based
Hi! Could you send only the number? It should be in nM, unit omitted.

Answered examples (2):
[[record]]
compound = "C[C@H]1[C@H](OC(=O)CCC(=O)O)O[C@@H]2O[C@@]3(C)CC[C@H]4[C@H](C)CC[C@@H]1[C@@]24OO3 [ARTESUNATE]"
recordedvalue = 24.3

[[record]]
compound = "C[C@@H]1CC[C@H]2[C@@H](C)C(=O)O[C@@H]3O[C@@]4(C)CC[C@@H]1[C@]32OO4"
recordedvalue = 36.8


Shifting focus to the compound that follows.
Dear colleague, please send me the reported IC50 for `C[C@H]1[C@@H](O)O[C@@H]2O[C@@]3(C)CC[C@H]4[C@H](C)CC[C@@H]1[C@@]24OO3` when you can.
3.56

====

pIC50 for assorted compounds
Tested on: Plasmodium falciparum
Test: Antimalarial activity against Plasmodium falciparum 7G8 clone 2 assessed as inhibition of [3H]hypoxanthine incorporation
Type: functional, organism-based
Conceptually, pIC50 converts a concentration in mol/L into minus its log10.

[[record]]
compound = "C[C@H]1[C@@H](O)O[C@@H]2O[C@@]3(C)CC[C@H]4[C@H](C)CC[C@@H]1[C@@]24OO3"
recordedvalue = 8.56

[[record]]
compound = "C[C@H]1[C@H](OC(=O)CCC(=O)O)O[C@@H]2O[C@@]3(C)CC[C@H]4[C@H](C)CC[C@@H]1[C@@]24OO3 [ARTESUNATE]"
recordedvalue = 7.92


Shifting focus to the compound that follows.
Dear colleague, please send me the reported pIC50 for `C[C@@H]1CC[C@H]2[C@@H](C)C(=O)O[C@@H]3O[C@@]4(C)CC[C@@H]1[C@]32OO4` when you can.
7.68

====

Tested on: Plasmodium falciparum
Assay: Antimalarial activity against Plasmodium falciparum D10 clone 2 assessed as inhibition of [3H]hypoxanthine incorporation
Format: functional, organism-based
pIC50 for assorted compounds
Conceptually, pIC50 converts a concentration in mol/L into minus its log10.

Answered examples (2):
[[record]]
compound = "C[C@@H]1CC[C@H]2[C@@H](C)C(=O)O[C@@H]3O[C@@]4(C)CC[C@@H]1[C@]32OO4"
recordedvalue = 7.46

[[record]]
compound = "C[C@H]1[C@@H](O)O[C@@H]2O[C@@]3(C)CC[C@H]4[C@H](C)CC[C@@H]1[C@@]24OO3"
recordedvalue = 8.47


Shifting focus to the compound that follows.
Dear colleague, please send me the reported pIC50 for C[C@H]1[C@H](OC(=O)CCC(=O)O)O[C@@H]2O[C@@]3(C)CC[C@H]4[C@H](C)CC[C@@H]1[C@@]24OO3 [ARTESUNATE] when you can.
7.77

====

IC50 for assorted compounds
Tested on: Plasmodium falciparum
Assay: Antimalarial activity against Plasmodium falciparum D10 clone 1 harboring pfATP6 L263 mutant assessed as inhibition of [3H]hypoxanthine incorporation
Assay type: functional, organism-based
Hi! Could you send only the number? It should be in nM, unit omitted.

Answered examples (2):
[[record]]
compound = "C[C@H]1[C@H](OC(=O)CCC(=O)O)O[C@@H]2O[C@@]3(C)CC[C@H]4[C@H](C)CC[C@@H]1[C@@]24OO3 [ARTESUNATE]"
observationtype = "IC50"
recordedvalue = 23.6

[[record]]
compound = "C[C@@H]1CC[C@H]2[C@@H](C)C(=O)O[C@@H]3O[C@@]4(C)CC[C@@H]1[C@]32OO4"
observationtype = "IC50"
recordedvalue = 42.8


Dear colleague, please send me the reported IC50 for `C[C@H]1[C@@H](O)O[C@@H]2O[C@@]3(C)CC[C@H]4[C@H](C)CC[C@@H]1[C@@]24OO3` when you can.
3.41

====

Tested on: Plasmodium falciparum
Experiment: Antimalarial activity against Plasmodium falciparum D10 clone M1 assessed as inhibition of [3H]hypoxanthine incorporation
Type: functional, organism-based
IC50 for assorted molecules
Hi! Could you send only the number? It should be in nM, unit omitted.

Answered examples (2):
[[record]]
molecule = "C[C@H]1[C@@H](O)O[C@@H]2O[C@@]3(C)CC[C@H]4[C@H](C)CC[C@@H]1[C@@]24OO3 [ARTENIMOL]"
recordedvalue = 3.79

[[record]]
molecule = "C[C@H]1[C@H](OC(=O)CCC(=O)O)O[C@@H]2O[C@@]3(C)CC[C@H]4[C@H](C)CC[C@@H]1[C@@]24OO3 [ARTESUNATE]"
recordedvalue = 26.5


Dear colleague, please send me the reported IC50 for C[C@@H]1CC[C@H]2[C@@H](C)C(=O)O[C@@H]3O[C@@]4(C)CC[C@@H]1[C@]32OO4 [ARTEMISININ] when you can.
62.3
